- Tested on: T47D
- Procedure Text: NCI tumour cell line growth inhibition, 48 h
Calls of active or inactive are those of the source. No stated cut-off is given here; in the data, active = GI50 up to about 1.1 µM and inactive = higher.
Field 'call' accepts active, inactive

[
  {
    "Compound": "O=C1OCC2=Nc3cccc4cccc(c34)N12",
    "Category Label": "inactive"
  },
  {
    "Compound": "Nc1ccc2c(c1)C(=O)c1ccccc1-2",
    "Category Label": "inactive"
  },
  {
    "Compound": "COc1cc2c(cc1OC)-c1[nH]c3ccc(C#N)cc3c1CC(=O)N2",
    "Category Label": "inactive"
  },
  {
    "Compound": "Cc1ccc(Cc2n[nH]c(=O)n2N2C(=O)c3ccccc3C2=O)cc1",
    "Category Label": "inactive"
  },
  {
    "Compound": "COC(=O)C1Cc2c([nH]c3ccccc23)C(c2cccc(O)c2)N1 (stereo not given)",
    "Category Label": "inactive"
  }
]

Task: Field: outcome | Entry: "CC[C@@]1(OP(=O)(O)O)C(=O)OCc2c1cc1n(c2=O)Cc2cc3ccccc3nc2-1"
Result: active

Task: Outcome logged for "CO/N=C(\C(=O)Nc1cncs1)c1csc(N)n1" in this assay:
Result: inactive

Task: Record lookup: outcome of this test for "Cc1[nH]c2ccccc2c1/C=N/NC(=O)c1cccc(I)c1" ?
Result: inactive

Task: Which outcome did this test record for the compound C=C1C(O)C[C@H](OC(C)=O)[C@]2(C)C1C(OC(C)=O)[C@]1(C(C)(C)O)CC(O)C(C)=C1[C@@H](OC(=O)c1ccccc1)C2OC(C)=O (stereo not given in full) ?
Result: inactive

====

- System: HCT-116
- Procedure Text: NCI tumour cell line growth inhibition, 48 h
The source made the active and inactive calls. No stated cut-off is given here; in the data, active = GI50 up to about 1.1 µM and inactive = higher.
The reader will find reported GI50 values listed item by item below.

[
  {
    "Molecule": "Cc1ccc(-c2c3nc(c(-c4ccc(C)cc4)c4ccc([nH]4)c(-c4ccc(OCC5COC(C)(C)O5)cc4)c4nc(c(-c5ccc(C)cc5)c5ccc2[nH]5)C=C4)C=C3)cc1 (configuration not stated)",
    "GI50": "> 31.6 µM (inactive)"
  },
  {
    "Molecule": "O=[N+]([O-])c1cc(Cl)c(Cl)cc1[N+](=O)[O-]",
    "GI50": "20.1 µM (inactive)"
  },
  {
    "Molecule": "C=CCn1c(=O)n(CC=C)c(=O)n(CC=C)c1=O",
    "GI50": "> 100 µM (inactive)"
  },
  {
    "Molecule": "Fc1cc(F)c(F)c(S)c1F",
    "GI50": "> 100 µM (inactive)"
  },
  {
    "Molecule": "CCCCc1ccc(Nc2nc(N)c3ncn(COCCO)c3n2)cc1",
    "GI50": "26.9 µM (inactive)"
  },
  {
    "Molecule": "CC1(C(=O)O)CCCC1C(=O)O (configuration not stated)",
    "GI50": "> 100 µM (inactive)"
  },
  {
    "Molecule": "Nc1nncc2[nH]cnc12",
    "GI50": "36.6 µM (inactive)"
  },
  {
    "Molecule": "CCOC(=O)C(CS)NC(=O)CCCCCCCC(=O)O (configuration not stated)",
    "GI50": "> 100 µM (inactive)"
  },
  {
    "Molecule": "COC1=NCc2ccccc2-c2ccccc21",
    "GI50": "> 100 µM (inactive)"
  },
  {
    "Molecule": "Nc1nc(=O)[nH]c2c1cnn2C1CCCCO1 (configuration not stated)",
    "GI50": "> 100 µM (inactive)"
  }
]

Task: Please report the measured GI50 for CCOC(=O)CCC(NC(=O)c1ccc(Nc2nc3ccccc3nc2C(=O)OCC)s1)C(=O)OCC (configuration not stated)
Result: > 100 µM (inactive)

Task: Find the measured GI50 of "Cc1ccccc1/N=N/c1ccc(N/N=C2/CCCNC2=O)c(C)c1" and report it.
Result: > 100 µM (inactive)

====

- System: DMS-114
- Procedure Text: NCI tumour cell line growth inhibition, 48 h
Active and inactive are the calls of the source. No stated cut-off is given here; in the data, active = GI50 up to about 1.1 µM and inactive = higher.
Assay Endpoint: GI50

[
  {
    "Compound": "CCOC(=O)/C(O)=C(/c1n[nH]c(=O)c2ccccc12)[N+](=O)[O-]",
    "Test Value": "> 100 µM (inactive)"
  },
  {
    "Compound": "CCOC(=O)C(=O)NCCCN1CCOCC1",
    "Test Value": "> 100 µM (inactive)"
  },
  {
    "Compound": "CC(C)N(CCn1c2c3ccccc3ccc2c2oc(=O)c3ccccc3c21)C(C)C",
    "Test Value": "> 100 µM (inactive)"
  },
  {
    "Compound": "O=C(/C=C/c1ccc([N+](=O)[O-])cc1)c1ccc(NCc2nc3ccccc3[nH]2)cc1",
    "Test Value": "1.91 µM (inactive)"
  }
]

Task: GET GI50 where system = DMS-114 and item = C[C@]12CC[C@H](O)CC1CCC[C@@H]2O (stereo not given in full)
Result: > 100 µM (inactive)

====

- System: ACHN
- Procedure Text: NCI tumour cell line growth inhibition, 48 h
Active and inactive are the calls of the source. Cut-off read from the data, not from the text of the source: active = GI50 up to about 1.1 µM and inactive = higher.
A correct response names exactly one class from active, inactive

For orientation, consider the following solved cases.
[
  {
    "Compound": "CC(=O)O[C@H]1C(=O)[C@@]2(C)C([C@H](OC(=O)c3ccccc3)[C@]3(O)C[C@H](OC(=O)[C@H](O)[C@H](NC(=O)c4ccccc4)c4ccc(Cl)cc4)C(C)=C1C3(C)C)C1(OC(C)=O)CO[C@@H]1C[C@@H]2O (some centres not stated)",
    "Target Entity": "ACHN",
    "Category Label": "active"
  },
  {
    "Compound": "O=Cc1cn(CCCCCn2cc(C=O)c3ccccc32)c2ccccc12",
    "Target Entity": "ACHN",
    "Category Label": "inactive"
  },
  {
    "Compound": "Oc1ccc2ccccc2c1/N=N/c1ccsc1",
    "Target Entity": "ACHN",
    "Category Label": "inactive"
  },
  {
    "Compound": "O=C(O)Cc1ccc(/N=N/c2c(O)c(C(=O)O)cc3ccccc23)cc1",
    "Target Entity": "ACHN",
    "Category Label": "inactive"
  },
  {
    "Compound": "CC(NC(=O)OCc1ccccc1)NC(=O)OC(C)(C)C (configuration not stated)",
    "Target Entity": "ACHN",
    "Category Label": "inactive"
  }
]

Task: Status in this test for "CCOC(=O)c1c(N2CCCC2)ncn(Cc2ccccc2)c1=S" ?
Result: inactive

Task: How was "C=CCc1oc(C)nc1CCCC" classified in this test?
Result: inactive

Task: // param item: "CCCCc1ccc(Nc2nc(N)c3ncn(COCCO)c3n2)cc1" ; yields the recorded call
Result: inactive

Task: Outcome? COc1cc(/C=C2\C(=O)N(c3ccccc3Cl)C(c3ccccc3)S2(=O)=O)cc(OC)c1OC (configuration not stated)
Result: inactive

Task: Please let me know the test result on file for "COc1cc(/N=C(\N)N=C(N)N)c2ncccc2c1" .
Result: inactive

====

- System: HCT-116
- Procedure Text: NCI tumour cell line growth inhibition, 48 h
Active and inactive are the calls of the source. No stated cut-off is given here; in the data, active = GI50 up to about 1.1 µM and inactive = higher.
Assay Endpoint: GI50

Sample records with GI50:
[
  {
    "Compound": "COc1ccc2nc3n(c2c1)C(c1c(Cl)cccc1Cl)SC3 (stereo unspecified)",
    "GI50": "> 100 µM (inactive)"
  },
  {
    "Compound": "CCCCC(=O)c1ccc2ccccc2c1O",
    "GI50": "> 100 µM (inactive)"
  },
  {
    "Compound": "O=C(O)c1ccc(C(=O)c2ccccc2)c(C(=O)O)c1",
    "GI50": "> 100 µM (inactive)"
  },
  {
    "Compound": "N/N=C(\\N)SCc1ccc(N=C=S)cc1",
    "GI50": "> 100 µM (inactive)"
  },
  {
    "Compound": "COc1ccc(CCNC(=O)CCc2ccccc2CO)cc1OC",
    "GI50": "> 100 µM (inactive)"
  }
]

Task: Recall and state the measured GI50 for CC(NC(=O)OCc1ccccc1)NC(=O)OC(C)(C)C (stereo unspecified) .
Result: > 100 µM (inactive)

Task: Hello, please tell me recorded GI50 for this one: "O=Cc1cn(CCCCCn2cc(C=O)c3ccccc32)c2ccccc12"
Result: > 100 µM (inactive)

Task: Tell us which GI50 value is on record for "O=C(CCCn1ccnc1[N+](=O)[O-])NCCn1cnc([N+](=O)[O-])n1"
Result: > 100 µM (inactive)

====

- Tested on: SNB-19
- Procedure Text: NCI tumour cell line growth inhibition, 48 h
The source made the active and inactive calls. Cut-off read from the data, not from the text of the source: active = GI50 up to about 1.1 µM and inactive = higher.
Assay Endpoint: GI50

[
  {
    "Compound": "O=C1C(c2c(O)[nH]c3ccc(Br)cc23)=Nc2ccccc21",
    "Test Value": "13.2 µM (inactive)"
  },
  {
    "Compound": "COc1ccc(CCNC(=O)CCc2ccccc2CO)cc1OC",
    "Test Value": "> 100 µM (inactive)"
  },
  {
    "Compound": "c1cc(-c2ccc(-c3ccc(C4=NCCCN4)cc3)o2)ccc1C1=NCCCN1",
    "Test Value": "52.6 µM (inactive)"
  },
  {
    "Compound": "O=C(O)[C@@H](NS(=O)(=O)c1ccc(F)cc1)c1ccccc1",
    "Test Value": "> 100 µM (inactive)"
  },
  {
    "Compound": "CCc1ccccc1NC(=O)CC1NC(=O)CS1 (stereo unspecified)",
    "Test Value": "> 100 µM (inactive)"
  }
]

Task: Name the recorded GI50 of "O=C(Nc1ccc(Cl)cc1Cl)/C(Cl)=C1/Sc2ccccc2NC1=O" , assay system SNB-19.
Result: 34.5 µM (inactive)

Task: Find the measured GI50 of "COc1cc(Cl)c2c3c(c(C(=O)c4ccccc4)oc13)CCC2" with SNB-19 as test system.
Result: > 100 µM (inactive)

Task: Give GI50 for this entry on SNB-19: "COc1nc2ncc([C@@H](OC(C)=O)[C@@H](COC(C)=O)OC(C)=O)nc2c(=O)n1C"
Result: > 100 µM (inactive)

Task: Fill: GI50 (SNB-19) for this compound "CCOC(=O)C(COS(C)(=O)=O)(COS(C)(=O)=O)C(=O)OCC"
Result: > 100 µM (inactive)

Task: Return reported GI50 for target or system SNB-19, item C=C(N=[N+]=[N-])c1cn(C2CC(O)C(CO)O2)c(=O)[nH]c1=O (stereo unspecified) .
Result: > 100 µM (inactive)

Task: Check SNB-19 data and give GI50 for "O=C(O)Cc1ccc(/N=N/c2c(O)c(C(=O)O)cc3ccccc23)cc1" .
Result: > 100 µM (inactive)

Recorded values, source ChEMBL document CHEMBL1201862.
